System: Saccharomyces cerevisiae
assay procedure: protein stability index of tFT-peptide fusion (C-terminal peptide) (PSI (0-1 scale)); higher = more stable (slower turnover);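 note: PSI is a weighted mean of sequencing reads over stability bins, variants kept only with over 10 reads, mCherry proximal and sfGFP distal, peptide attached via GGGS linker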
conditions: genetic background: wild type; temperature: 37 C
Exercise: state measured protein stability index for each of the sequences provided.
Form: value (number only, do not type unit).

The recorded protein stability index for ASHLGLGCLVVC is 0.579

The recorded protein stability index for VFFTSLPPLLRA is 0.486

The recorded protein stability index for GMGHLSNVCLKT is 0.706

The recorded protein stability index for ETQKEKRENAKP is 0.677

The recorded protein stability index for HSRALLPYLSYH is 0.558

The recorded protein stability index for GWRRRIWLCRLQ is 0.662

The recorded protein stability index for FTNLDYTKEKNN is 0.178

The recorded protein stability index for ISFQFFVCLCAR is 0.253

The recorded protein stability index for GIFVWWFWGCCG is 0.528

The recorded protein stability index for VVGLSLLFSGGV is 0.727

The recorded protein stability index for GGGVGVVWVRLG is 0.137

The recorded protein stability index for SVVYSVWIYLLH is 0.392

The recorded protein stability index for SSVLLMFFCFVC is 0.252

The recorded protein stability index for CPALYMPPPVLV is 0.215

The recorded protein stability index for LIICRSFLCKVR is 0.317

The recorded protein stability index for FLSCSRRPLRCW is 0.469

The recorded protein stability index for LLPYSLSLALRA is 0.429

The recorded protein stability index for GSLLNLSLRWLV is 0.226

The recorded protein stability index for VFIVVEFRLSLY is 0.263

The recorded protein stability index for KLCVGLVLSFVC is 0.396

The recorded protein stability index for LILIVVVAGSVG is 0.385

The recorded protein stability index for VAFILVVCKGIG is 0.287

The recorded protein stability index for LPPFLSSLPSSP is 0.732

The recorded protein stability index for FRLFSLWFCWVR is 0.26

The recorded protein stability index for LLILSVRPFVFV is 0.515

The recorded protein stability index for FFSLRRAVTVSA is 0.327

The recorded protein stability index for FFLFFLSFGCFL is 0.505

The recorded protein stability index for LLSGHFRLLLAF is 0.108

The recorded protein stability index for WCFGSLLIRFSL is 0.516

The recorded protein stability index for LGGCVSYINLLA is 0.392

The recorded protein stability index for LFFPLPGILSFF is 0.676

The recorded protein stability index for VVFSLLLWLFIS is 0.194

The recorded protein stability index for FSVLLLANFCFF is 0.528

The recorded protein stability index for GFRVTTCASWIC is 0.191

The recorded protein stability index for QGGTWKKLVKMI is 0.165

====

System: Saccharomyces cerevisiae
assay procedure: protein stability index of tFT-peptide fusion (C-terminal peptide) (PSI (0-1 scale)); higher = more stable (slower turnover)
conditions: genetic background: wild type; temperature: 30 C
Exercise: state measured protein stability index for each of the sequences provided.

The recorded protein stability index for FPPPRYPRRPTA is 0.682

The recorded protein stability index for YSGFYIRRGLTW is 0.689

The recorded protein stability index for KFMKEITIDGLT is 0.709

The recorded protein stability index for PPSPPPPPPFVP is 0.717
